Target under test: cyno SIRPα stably expressed on CHOK1 cells (cyno)
Assay protocol: FACS, CHOK1-Cyno SIRPα cells
Quick reference: TOP MFI of the listed items.
Respond with the bare value in MFI.

- Binder: "hu1H9G4 (antibody, V domains shown) VH: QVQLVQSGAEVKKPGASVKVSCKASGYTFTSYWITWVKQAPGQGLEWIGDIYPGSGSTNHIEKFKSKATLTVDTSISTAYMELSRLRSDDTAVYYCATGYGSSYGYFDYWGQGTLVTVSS VL: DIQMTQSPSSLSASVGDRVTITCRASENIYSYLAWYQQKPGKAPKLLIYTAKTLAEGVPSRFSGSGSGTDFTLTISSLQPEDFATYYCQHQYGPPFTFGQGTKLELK"
  TOP MFI / MFI: 14900

// TOP MFI lookup, key: 042c (antibody, V domains shown) VH: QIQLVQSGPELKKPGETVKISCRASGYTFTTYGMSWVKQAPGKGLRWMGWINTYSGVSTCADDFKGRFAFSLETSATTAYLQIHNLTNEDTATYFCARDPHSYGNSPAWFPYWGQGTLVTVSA VL: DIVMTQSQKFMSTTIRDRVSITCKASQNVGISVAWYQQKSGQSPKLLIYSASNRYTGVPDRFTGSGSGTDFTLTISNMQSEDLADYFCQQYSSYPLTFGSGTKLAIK
32400
